Hello, the source for this data is ChEMBL document CHEMBL1201862, in case you need it.

# assay-target: FAD-linked sulfhydryl oxidase ALR (Homo sapiens)
# Sequence (P55789 whole entry): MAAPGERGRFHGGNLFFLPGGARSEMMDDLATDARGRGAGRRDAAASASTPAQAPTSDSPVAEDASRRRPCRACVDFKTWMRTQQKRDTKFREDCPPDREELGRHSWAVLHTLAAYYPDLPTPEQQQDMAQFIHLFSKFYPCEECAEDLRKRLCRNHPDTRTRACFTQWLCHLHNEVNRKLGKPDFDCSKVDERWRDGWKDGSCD
# protocol-notes: inhibitors of human ALR sulfhydryl oxidase, dose response, biochemical, H2O2 detection, luminescence, cherry-pick (AID 493248)
Active and inactive are the calls of the source. Rule as the data show it: actives have a measured AC50 and inactives only a lower limit.
Outcome codes: active, inactive

{"compound": "COC(=O)[C@H](Cc1ccccc1)NC(=O)N1CCN(c2ccc(F)cc2)CC1", "class-name": "inactive"}
{"compound": "CCc1ccc2cccc3c2c1N=CN3C", "class-name": "active"}
{"compound": "O=C1N=C(NO)S/C1=C\\c1ccccc1-n1cccn1", "class-name": "active"}
{"compound": "COc1cc(/C=N\\NC(=O)CC(=O)NCCc2ccccc2)ccc1O", "class-name": "active"}
{"compound": "Cn1c(CSc2nc3ccccc3s2)n[nH]c1=S", "class-name": "active"}
{"compound": "COc1ccccc1NC(=O)c1c(NC(=O)CCC(=O)O)sc2c1CCCCC2", "class-name": "active"}
{"compound": "O=C(Nc1cccs1)NC1CCCC1", "class-name": "active"}
{"compound": "CCCc1ccc(-c2cc(N)[nH]n2)cc1", "class-name": "active"}
{"compound": "Cc1cc(Nc2ccccc2)n(-c2ccc(C(=O)O)cc2)n1", "class-name": "active"}
{"compound": "CCCCC(NC(=O)Cc1c(C)c2cc3c(C)c(C)oc3c(C)c2oc1=O)C(=O)O (centres undefined)", "class-name": "inactive"}
{"compound": "c1ccc(-c2nc(-c3ccco3)cs2)nc1", "class-name": "active"}
{"compound": "COc1ccc(N(C)S(=O)(=O)c2cccc(C(=O)Nc3nc(C)cs3)c2)cc1", "class-name": "active"}
{"compound": "Cc1ccc2[nH]cc(CCNC(=O)c3cccs3)c2c1", "class-name": "active"}
{"compound": "CCN(CC)c1ccc(NC(=O)C2=CCN(S(=O)(=O)c3ccc(F)cc3)CC2)c(C)c1", "class-name": "active"}
